target: SIRPα-His protein (UniProt P78324)
assay remarks: competition ELISA, SIRPα-His binding to coated CD47-Fc
recorded endpoint: IC50
I'd appreciate it if you wrote the number followed by its unit.

Here is how some binders turned out for IC50.
| binder | observed |
| --- | --- |
| HSP210-03-hz22 (antibody, V domains shown) VH: QVQLVQSGAEVKKPGSSVKVSCKASGYTFTSNYIHWVRQAPGQGLEWMGWIYPGDGDTNYNQKFNGRVTITADKSTSTAYMELSSLRSEDTAVYYCAINYGGIWFAYWGQGTLVTVSS VL: DIQMTQSPSSLSASVGDRVTITCQASQDIGNKLIWFQQKPGKAPKLLIHYVTNLPGGVPSRFSGSRSGSDYTLTISSLQPEDFATYYCLQYKQNPLTFGQGTKLEIK | 0.16 nM |
| HSP210-02-hz32 (antibody, V domains shown) VH: QVQLVQSGAEVKKPGASVKVSCKASGFNFEDTYMHWVRQAPGQGLEWMGRIDPADGDTKYNPKFQDRVTITVDTSTNTAYMELSSLRSEDTAVYYCVRGNYVNWGQGTTVTVSS VL: EIVLTQSPGTLSLSPGERATLSCRASSSVSSSYLYWYQQKPGQAPRLLIYSTSNLASGIPDRFSGSGSGTDYTLTISRLEPEDAAVYFCHQWYSYPRTFGGGTKVEIK | 0.11 nM |

Pending binder:
// query Fill blank: measured IC50 of the binder HSP210-01-hz52 (antibody, V domains shown) VH: QVQLQESGPGLVKPSETLSLTCTFSGFSLNTYDIGMGWIRQPPGKGLEWIAHIWWNDREYYSSALQSRVTISKDTSKTQVSLKLSSVTAADTAVYYCVRIDYFGSGQAWFTYWGQGTLVTVSS VL: EIVLTQSPGTLSLSPGERATLSCSSSSTISSTYLHWYQQKPGQAPRLLISGTSNLASGIPDRFSGSGSGTDYTLTISRLEPEDVAVYYCQQGSRIPFTFGQGTKLEIK is ____.
// result 0.23 nM
